Recorded Intrinsic activity for the following molecules
# test-target: 5-hydroxytryptamine receptor 2C (Homo sapiens) (UniProt P28335)
# Sequence (P28335 whole entry): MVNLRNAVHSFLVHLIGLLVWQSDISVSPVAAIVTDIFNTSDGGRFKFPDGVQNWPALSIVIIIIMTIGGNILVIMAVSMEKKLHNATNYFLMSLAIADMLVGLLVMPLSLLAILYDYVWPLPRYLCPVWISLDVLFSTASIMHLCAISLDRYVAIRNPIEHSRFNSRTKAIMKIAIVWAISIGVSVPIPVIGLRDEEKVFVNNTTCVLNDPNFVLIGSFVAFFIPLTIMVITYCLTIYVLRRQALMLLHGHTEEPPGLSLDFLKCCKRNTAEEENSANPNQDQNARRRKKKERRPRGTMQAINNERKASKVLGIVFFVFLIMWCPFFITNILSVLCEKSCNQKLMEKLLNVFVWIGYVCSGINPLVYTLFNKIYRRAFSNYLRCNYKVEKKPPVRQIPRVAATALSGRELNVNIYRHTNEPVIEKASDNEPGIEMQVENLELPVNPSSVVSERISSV
# assay-protocol: Intrinsic activity at recombinant human 5-HT2C receptor expressed in HEK293E cells assessed as induction of intracellular Ca2+ levels after 90 secs by Fluo-4-dye based FLIPR assay relative to serotonin
# Format: functional, cell-based
# condition-set: HEK293
No unit in the answer, please; the number alone is enough.

[[record]]
molecule = "CCn1nc(-c2cccc3cccnc23)cc1-c1ccc(N)nn1"
observed_measurement = 0.8

[[record]]
molecule = "CCn1nc(-c2cccc3ccncc23)cc1-c1cccnn1"
observed_measurement = 0.7

[[record]]
molecule = "Cc1cccc(-c2nc(C(=O)N3CCOCC3)cs2)c1C"
observed_measurement = 0.7

[[record]]
molecule = "Cc1nc(-c2cccc3ccccc23)sc1C(=O)N1CCC(O)CC1"
observed_measurement = 0.9

[[record]]
molecule = "O=C(c1csc(-c2cccc(Cl)c2Cl)n1)N1CCOCC1"
observed_measurement = 0.8


Problem: Please indicate recorded Intrinsic activity of O=C(c1nnn(-c2cccc3ccccc23)n1)N1CCC(CO)CC1 measured with 5-hydroxytryptamine receptor 2C (Homo sapiens) (UniProt P28335).
Solution: 0.3

Problem: Please indicate recorded Intrinsic activity of Cc1cc(-c2cccc3ccccc23)sc1C(=O)N1CCC(CO)CC1 measured with 5-hydroxytryptamine receptor 2C (Homo sapiens) (UniProt P28335).
Solution: 1

Problem: Please indicate recorded Intrinsic activity of Cn1nc(-c2cccc3ccccc23)cc1-c1cccnn1 measured with 5-hydroxytryptamine receptor 2C (Homo sapiens) (UniProt P28335).
Solution: 1.2

Problem: Please indicate recorded Intrinsic activity of Cc1nc(-c2cccc3ccccc23)sc1C(=O)N1CCCCC1 measured with 5-hydroxytryptamine receptor 2C (Homo sapiens) (UniProt P28335).
Solution: 1

Problem: Please indicate recorded Intrinsic activity of Cc1nc(-c2cccc3ccccc23)sc1C(=O)N1CCN(C)CC1 measured with 5-hydroxytryptamine receptor 2C (Homo sapiens) (UniProt P28335).
Solution: 0.8

Problem: Please indicate recorded Intrinsic activity of CCn1nc(-c2cncc3ccccc23)cc1-c1cccnn1 measured with 5-hydroxytryptamine receptor 2C (Homo sapiens) (UniProt P28335).
Solution: 0.7

Problem: Please indicate recorded Intrinsic activity of Cn1nc(-c2cccc3ccccc23)cc1C(=O)N1CCC(CO)CC1 measured with 5-hydroxytryptamine receptor 2C (Homo sapiens) (UniProt P28335).
Solution: 1

Problem: Please indicate recorded Intrinsic activity of Cc1nc(-c2cccc3ccccc23)sc1C(=O)N1CCc2[nH]cnc2C1 measured with 5-hydroxytryptamine receptor 2C (Homo sapiens) (UniProt P28335).
Solution: 1

Problem: Please indicate recorded Intrinsic activity of CCn1nc(-c2cccc3ccccc23)cc1-c1nnnn1C measured with 5-hydroxytryptamine receptor 2C (Homo sapiens) (UniProt P28335).
Solution: 0.6

Problem: Please indicate recorded Intrinsic activity of Cc1nc(-c2cccc3ccccc23)sc1C(=O)N1CCCC(O)CC1 (stereo not drawn) measured with 5-hydroxytryptamine receptor 2C (Homo sapiens) (UniProt P28335).
Solution: 0.9

Problem: Please indicate recorded Intrinsic activity of Cc1cc(-c2cccc3ccccc23)oc1C(=O)N1CCC(CO)CC1 measured with 5-hydroxytryptamine receptor 2C (Homo sapiens) (UniProt P28335).
Solution: 0.7

---

# assay-protocol: Metabolic stability in human liver microsomes assessed as parent compound remaining at […] after 10 mins
# Type: ADME, microsome
# condition-set: read-out: Stability
Recorded remaining at 10 min for the following compounds
Provide only the numeric value, understood in %.

The examples below pair each entry with its known result.
[[record]]
compound = "Cc1nc(-c2cccc3ccccc23)oc1C(=O)N1CCC(CO)CC1"
observed_measurement = 33

[[record]]
compound = "CCn1nc(-c2cccc3cccnc23)cc1-c1ccc(N)nn1"
observed_measurement = 61

[[record]]
compound = "Cc1nc(-c2cccc3ccccc23)sc1C(=O)N1CCC(O)CC1"
observed_measurement = 84

[[record]]
compound = "Cc1nc(-c2cccc3ccccc23)sc1C(=O)N1CCCC(O)CC1 (stereo not drawn)"
observed_measurement = 50

[[record]]
compound = "Cc1nn(-c2cccc3ccccc23)nc1C(=O)N1CCC(CO)CC1"
observed_measurement = 58


Problem: Return the recorded remaining at 10 min value; entry: Cc1nc(-c2cccc3ccccc23)sc1C(=O)N1CCOCC1
Solution: 50

Problem: Return the recorded remaining at 10 min value; entry: Cc1sc(-c2cccc3ccccc23)cc1C(=O)N1CCC(CO)CC1
Solution: 66

Problem: Return the recorded remaining at 10 min value; entry: Cc1nc(-c2cccc3ccccc23)sc1C(=O)N(C)CCO
Solution: 67
